Molecular target: DNA repair nuclease/redox regulator APEX1 (Homo sapiens)
Test: qHTS Validation Assay for Inhibitors of the Human Apurinic/apyrimidinic Endonuclease 1 (APE1) (AID 1705)
Settings: purified APE1 endonuclease activity, fluorescence, titration; series mostly up to 57.1 µM
Results filed as inconclusive are left out. Calls of active or inactive are those of the source. Calls follow the shape of the dose curve; as a rule, active = well fitted inhibition curve with a large enough effect; inconclusive = small, poorly fitted or top-dose-only effect; inactive = flat fitted curve, though single readings scatter.
Outcome codes: active, inactive

compound	experimental.target	cat
CN(C)C(=O)C(CCN1CCC(O)(c2ccc(Cl)cc2)CC1)(c1ccccc1)c1ccccc1	DNA repair nuclease/redox regulator APEX1 (Homo sapiens)	inactive
O=c1c(-c2ccc(O)cc2)coc2cc(O)cc(O)c12	DNA repair nuclease/redox regulator APEX1 (Homo sapiens)	inactive
CS(=O)(=O)Nc1ccc([N+](=O)[O-])cc1Oc1ccccc1	DNA repair nuclease/redox regulator APEX1 (Homo sapiens)	active
O=C1c2c(O)ccc(O)c2C(=O)c2c(NCCNCCO)ccc(NCCNCCO)c21	DNA repair nuclease/redox regulator APEX1 (Homo sapiens)	active
Clc1ccccc1C(c1ccccc1)(c1ccccc1)n1ccnc1	DNA repair nuclease/redox regulator APEX1 (Homo sapiens)	inactive
COc1cc2nc(N3CCN(C(=O)C4COc5ccccc5O4)CC3)nc(N)c2cc1OC (stereo unspecified)	DNA repair nuclease/redox regulator APEX1 (Homo sapiens)	inactive
O=C(c1ccc(OCCN2CCCCC2)cc1)c1c(-c2ccc(O)cc2)sc2cc(O)ccc12	DNA repair nuclease/redox regulator APEX1 (Homo sapiens)	inactive
COc1ccccc1N1CCN(CC(O)COc2cccc3ccccc23)CC1 (stereo unspecified)	DNA repair nuclease/redox regulator APEX1 (Homo sapiens)	inactive
Nc1ccn([C@H]2CC[C@@H](CO)O2)c(=O)n1	DNA repair nuclease/redox regulator APEX1 (Homo sapiens)	inactive
Cn1c(=O)c2[nH]cnc2n(C)c1=O	DNA repair nuclease/redox regulator APEX1 (Homo sapiens)	inactive
CC(COc1ccccc1)N(CCCl)Cc1ccccc1 (stereo unspecified)	DNA repair nuclease/redox regulator APEX1 (Homo sapiens)	inactive

* * *

Test system: KB-3-1
Test: Cytotoxic Profiling of Annotated Libraries Using Quantitative High-Throughput Screening (AID 1296008); also: % is scaled to controls: 0 for no effect and ±100 for the full control effect; nearly all actives have a fitted effect of over 60% in size
Settings: Five cell lines viability, CellTiter-Glo ATP luminescence, 48-72 h; active compounds read low
Inconclusive results are not listed. Activity calls are given as the source filed them. The call rests on the fitted dose curve; in most records, active means well fitted inhibition curve with a large enough effect; inconclusive means small, poorly fitted or top-dose-only effect; inactive means flat fitted curve, though single readings scatter.

molecule	max response
O=c1c(-c2ccc(O)cc2)coc2cc(O)cc(O)c12	32.1% (inactive)
O=C1Cc2cc(CCN3CCN(c4nsc5ccccc45)CC3)c(Cl)cc2N1	2.45% (inactive) [middle of 4 runs]
CS(=O)(=O)CCNCc1ccc(-c2ccc3ncnc(Nc4ccc(OCc5cccc(F)c5)c(Cl)c4)c3c2)o1	0.0192% (inactive)
CC(CCc1ccc(O)cc1)NCCc1ccc(O)c(O)c1 (stereo not given)	-2.1% (inactive)
CN1CCN(C2=Nc3cc(Cl)ccc3Nc3ccccc32)CC1	6.37% (inactive)
NC(=O)OCC(COC(N)=O)c1ccccc1	-1.19% (inactive)
CN1C2CCC1CC(OC(=O)C(CO)c1ccccc1)C2 (stereo not given)	0.626% (inactive)
CC12CC3CC(C)(C1)CC(N)(C3)C2	0.442% (inactive)
CC1COc2c(N3CCN(C)CC3)c(F)cc3c(=O)c(C(=O)O)cn1c23 (stereo not given)	21.2% (inactive)
Clc1ccccc1C(c1ccccc1)(c1ccccc1)n1ccnc1	-12.5% (inactive)
CCN1CCCC1CNC(=O)c1cc(S(=O)(=O)CC)c(N)cc1OC (stereo not given)	8.59% (inactive)
O=C1N(c2ccccc2)c2ccccc2C1(Cc1ccncc1)Cc1ccncc1	0.123% (inactive)
CN1CCC(=C2c3ccccc3CC(=O)c3sccc32)CC1	-4.06% (inactive)
Nc1ccn([C@H]2CC[C@@H](CO)O2)c(=O)n1	-19.7% (inactive)
Cn1c(=O)c2c(ncn2C)n(C)c1=O	3.75% (inactive)
